- Tested on: MCF-7 breast carcinoma
- procedure_summary: MTT cytotoxicity assay, MCF-7
- conditions: Homo sapiens, MCF7, […], read-out: Cytotoxicity ED50, MCF-7
value_kind: pIC50
Worth noting: pIC50 values are minus log10 of concentrations stated in mol/L.

Some solved entries appear below for comparison.
- compound: "COc1cc(/C=C\\c2ccc(Br)cc2)cc(OC)c1OC"
  pIC50: 7.80
- compound: "COc1cc(/C=C/c2ccc(O)cc2)cc(OC)c1OC"
  pIC50: 4.73
- compound: "COc1ccc(CC2c3cc(OC)c(OC)c(OC)c3CCN2C)cc1 (stereo not drawn)"
  pIC50: 4.64

In: Find the recorded pIC50 belonging to COC(=O)/C(=C/c1ccc(OC)cc1)c1cc(OC)c(OC)c(OC)c1 [compound 24a] and report it.
Out: 7.70

In: // returns reported pIC50 for input COc1cc(/C=C\c2ccc(O[Si](C)(C)C(C)(C)C)cc2)cc(OC)c1OC
Out: 5.14

In: If you can, please state the reported pIC50 value of COc1cc(CCc2ccc(SC)cc2)cc(OC)c1OC [17c] .
Out: 6.70

----------
- System: MCF-7 breast carcinoma
- procedure_summary: MTT cytotoxicity assay, MCF-7
- conditions: Homo sapiens, MCF7, […], read-out: Cytotoxicity ED50, MCF-7
Measured pIC50, listed per entry.
Scale: negative log10 of molar concentration, which is what pIC50 denotes.

Recorded results for 5 molecules are shown here.
- molecule: "COc1ccc(NCc2cc(OC)cc(OC)c2)cc1 [compound 12d]"
  value_kind: "pIC50"
  observed: 5.22
- molecule: "CCc1ccc(CCc2cc(OC)c(OC)c(OC)c2)cc1 [17e]"
  value_kind: "pIC50"
  observed: 6.80
- molecule: "COc1cc2ccc3c(OC)cccc3c2c(OC)c1OC [32d, 2,3,4,8-Tetramethoxyphenanthrene]"
  value_kind: "pIC50"
  observed: 4.84
- molecule: "CCc1ccc(/C=C/c2cc(OC)c(OC)c(OC)c2)cc1 [16e]"
  value_kind: "pIC50"
  observed: 5.92
- molecule: "COc1ccc(CCc2cc(OC)c(OC)c(OC)c2)cc1O [compound 1c, reference compound]"
  value_kind: "pIC50"
  observed: 6.48

In: Look at this molecule and give its reported pIC50. COc1cc(/C=C\c2ccc(OC(C)=O)cc2)cc(OC)c1OC
Out: 6.52

----------
- Test system: MCF-7 breast carcinoma
- procedure_summary: MTT cytotoxicity assay, MCF-7
- conditions: Homo sapiens, MCF7, […], read-out: Cytotoxicity ED50, MCF-7
pIC50: −log10 of the molar value.
value_kind: pIC50

- smiles_code: "COc1cc(OC)c(OC)cc1CCc1cc(OC)c(OC)c(OC)c1"
  tested_system: "MCF-7 breast carcinoma"
  observed: "< 4.60"
- smiles_code: "COc1cc(/C=C/c2ccncc2)cc(OC)c1OC"
  tested_system: "MCF-7 breast carcinoma"
  observed: "< 4.60"

Next item in the queue.
In: Notebook: pull reported pIC50 for MCF-7 breast carcinoma, entry COc1ccc(Cc2c3cc(OC)c(OC)c(OC)c3cc[n+]2C)cc1
Out: < 4.60

----------
- Test system: MCF-7 breast carcinoma
- procedure_summary: MTT cytotoxicity assay, MCF-7
- conditions: Homo sapiens, MCF7, […], read-out: Cytotoxicity ED50, MCF-7
value_kind: IC50

- compound: "COc1cc(/C=C\\c2ccc([N+](=O)[O-])cc2)cc(OC)c1OC [5l]"
  IC50: "> 25 µM"
- compound: "COc1cc(/C=C/c2ccc(OC)c(OC)c2)cc(OC)c1 [6y]"
  IC50: "> 25 µM"
- compound: "COC(=O)C(Cc1cc(OC)c(OC)c(OC)c1)c1ccc(OC)cc1 (stereo not drawn) [compound 17j]"
  IC50: "> 25 µM"
- compound: "COc1ccc(/C=C/c2ccccc2)cc1OC [6q]"
  IC50: "> 25 µM"
- compound: "COc1ccc(C(Cc2cc(OC)c(OC)c(OC)c2)C(=O)O)cc1 (stereo not drawn) [compound 33]"
  IC50: "> 25 µM"

In: For the compound shown here, COc1ccc(/C=C\c2cc(OC)c(OC(C)=O)c(OC)c2)cc1 [15l] , give the reported IC50.
Out: > 25 µM

In: Dear colleague, I am looking for the recorded IC50 of the following compound: COc1cc(CCc2ccncc2)cc(OC)c1OC [8i]
Out: > 25 µM

In: Recorded IC50 for COc1ccc(C(=O)Nc2cc(OC)cc(OC)c2)cc1 [11e] , please?
Out: > 25 µM

In: I have this compound here, COc1ccc(CNc2cc(OC)cc(OC)c2)cc1 [12e] , and I need its recorded IC50.
Out: > 25 µM

In: # get_value(readout='IC50', item= COc1ccc(NC(=O)c2cc(OC)c(OC)c(OC)c2)cc1 [11a] )
Out: 12.2 µM
